testTarget: Ste12 (UniProt P13574)
Sequence (P13574 whole entry): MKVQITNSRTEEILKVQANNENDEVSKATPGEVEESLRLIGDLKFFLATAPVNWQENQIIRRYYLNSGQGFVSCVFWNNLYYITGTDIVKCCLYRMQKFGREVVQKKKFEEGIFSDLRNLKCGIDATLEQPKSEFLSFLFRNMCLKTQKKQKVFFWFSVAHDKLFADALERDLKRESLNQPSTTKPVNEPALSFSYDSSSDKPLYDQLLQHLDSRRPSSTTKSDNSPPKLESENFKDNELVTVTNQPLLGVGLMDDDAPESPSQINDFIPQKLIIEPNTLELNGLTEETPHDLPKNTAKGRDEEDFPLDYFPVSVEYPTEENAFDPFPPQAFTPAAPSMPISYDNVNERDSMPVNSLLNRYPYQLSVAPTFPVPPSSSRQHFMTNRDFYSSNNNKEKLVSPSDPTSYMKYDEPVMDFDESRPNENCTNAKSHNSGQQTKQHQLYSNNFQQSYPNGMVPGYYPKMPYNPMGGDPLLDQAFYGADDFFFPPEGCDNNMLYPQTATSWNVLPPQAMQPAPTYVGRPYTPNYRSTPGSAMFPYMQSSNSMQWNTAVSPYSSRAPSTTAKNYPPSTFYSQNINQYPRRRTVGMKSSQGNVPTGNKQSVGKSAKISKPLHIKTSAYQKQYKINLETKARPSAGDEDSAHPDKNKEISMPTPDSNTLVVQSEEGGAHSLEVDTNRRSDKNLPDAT
assayProcedure: PBM E-score (8-mer binding enrichment) (E-score (-0.5 to 0.5)); higher = stronger / more preferred TF binding
protocolConditions: protein concentration: 200 nM; construct: GST-DNA-binding domain
Whole data set: some 33,000 sequences, median “E-score (-0.5 to 0.5)” near -0.01, cut for the highest 2% near 0.26. The entries come from a sample that favours the highest values as a whole.
reportedMetric: PBM E-score
Lab note: write the figure by itself, no unit.

Please review the following examples before continuing.
• ACAGACTG = 0.0359
• GATTTCGC = 0.2
• ATGTCTGG = 0.0356
• TACCAGCA = -0.0129
• TACTGAAA = 0.358
• GCGATTTA = 0.0399
• GATCGTGC = 0.0893
• AGTGGTAT = -0.0443

Per the records, this sequence ( ATATCAAA ) has PBM E-score equal to 0.3

For this sequence ( ACAGCCAG ), measured PBM E-score is -0.178

Lab note: measured PBM E-score of GATCAACA was -0.0858

PBM E-score reported for this sequence GACTGAAA : 0.241

Lookup result for AAACAACC ; measured PBM E-score: 0.277

====

testTarget: Ste12 (UniProt P13574)
assayProcedure: PBM E-score (8-mer binding enrichment) (E-score (-0.5 to 0.5)); higher = stronger / more preferred TF binding
protocolConditions: protein concentration: 200 nM; construct: GST-DNA-binding domain
In all, about 33,000 sequences were measured (“E-score (-0.5 to 0.5)”: median about -0.01, highest 2% from about 0.26 on). Many of the other results were omitted from the sample, so the highest values are more common in it than they were.
Threshold rule: PBM E-score greater than or equal to 0.2 is Condition met; below that, Condition not met.

A selection of reference data follows.
* AATATTAT | Condition met
* GACAGAAA | Condition not met

Query string: Quick check, PBM E-score >= 0.2? AAAACACT
Result string: Condition met

Query string: Can GCAATCCC be said to have PBM E-score at or above 0.2?
Result string: Condition not met

Query string: Is PBM E-score at least 0.2? Consider AACACTCG
Result string: Condition not met

Query string: I'd appreciate it if you could say whether GCCACCCA has PBM E-score at least equal to 0.2.
Result string: Condition not met

Query string: Could you please find out whether AACAAAGC has PBM E-score that meets 0.2 or exceeds it?
Result string: Condition met

Query string: State whether the measured PBM E-score reaches 0.2, counting equality as reaching it, for ATGCGCAT
Result string: Condition not met

Query string: Please indicate if the recorded PBM E-score for AACAGAAA meets or exceeds 0.2.
Result string: Condition met

====

testTarget: Ste12 (UniProt P13574)
assayProcedure: PBM E-score (8-mer binding enrichment) (E-score (-0.5 to 0.5)); higher = stronger / more preferred TF binding
protocolConditions: protein concentration: 200 nM; construct: GST-DNA-binding domain
Whole data set: some 33,000 sequences, median “E-score (-0.5 to 0.5)” near -0.01, cut for the highest 2% near 0.26. The sample as a whole holds a higher share of the highest values than the screen did.
Parameter PBM E-score: see the listing below.
# output: bare number, no unit

As a guide, the following entries are already answered.
• ACTAAAGC = 0.0971
• ACTCTCCG = -0.0208
• TGATTACA = -0.00637
• TATACAAA = 0.127
• AAAGGTTC = -0.154

Param item: TCCGACGA ; param system: Ste12 (UniProt P13574); output PBM E-score: -0.109

Reading of PBM E-score for GTCTCTGA with Ste12 (UniProt P13574): -0.168

Observed PBM E-score on Ste12 (UniProt P13574), entry AGGCGGGA , equals 0.0721

The value of PBM E-score recorded for AGGCGGGC when tested on Ste12 (UniProt P13574) reads 0.0738

Considering AAGACCTA , its PBM E-score with Ste12 (UniProt P13574) was recorded as -0.0739

Item AAAATATT was tested on Ste12 (UniProt P13574); the reported PBM E-score is 0.266

Tested system Ste12 (UniProt P13574); PBM E-score recorded for AATCTCCA was -0.184

Lab note: sequence ACCTTGGA tested on Ste12 (UniProt P13574); recorded PBM E-score was -0.197

Entry GCACATCA , tested on Ste12 (UniProt P13574), has a reported PBM E-score of -0.00042

Response field PBM E-score (Ste12 (UniProt P13574)) for item AGGGCGGG : 0.296

The measured PBM E-score that AATATATA showed for Ste12 (UniProt P13574) is 0.22

Assay Ste12 (UniProt P13574), sample AACGACCA , PBM E-score read: -0.0479

# ATGAGACC with Ste12 (UniProt P13574): PBM E-score is -0.144

Lab entry: Ste12 (UniProt P13574) assay, sequence AATACAAG , PBM E-score = 0.302

Note to self: PBM E-score of AGATCCCG with Ste12 (UniProt P13574) was 0.0252

Query AGGGGCGA on Ste12 (UniProt P13574); PBM E-score returned: 0.165

====

testTarget: Ste12 (UniProt P13574)
assayProcedure: PBM E-score (8-mer binding enrichment) (E-score (-0.5 to 0.5)); higher = stronger / more preferred TF binding
protocolConditions: protein concentration: 200 nM; construct: GST-DNA-binding domain
Whole data set: some 33,000 sequences, median “E-score (-0.5 to 0.5)” near -0.01, cut for the highest 2% near 0.26. The sample as a whole holds a higher share of the highest values than the screen did.
Think of 0.2 as a floor: if PBM E-score stands on it or above, it is Condition met; beneath it, Condition not met.

• CTGAGTCA = Condition not met

Query string: Tell me whether PBM E-score is at least 0.2 here: CTTTGAGA
Result string: Condition not met

Query string: Is PBM E-score for CTTCGCTC at or above 0.2?
Result string: Condition not met

Query string: Is PBM E-score for CATAAAAC at or above 0.2?
Result string: Condition met

====

Here, each record is paired with measured PBM E-score data.
testTarget: Ste12 (UniProt P13574)
assayProcedure: PBM E-score (8-mer binding enrichment) (E-score (-0.5 to 0.5)); higher = stronger / more preferred TF binding
protocolConditions: protein concentration: 200 nM; construct: GST-DNA-binding domain
Whole data set: some 33,000 sequences, median “E-score (-0.5 to 0.5)” near -0.01, cut for the highest 2% near 0.26. Shown is part of a subset that was picked to be rich in the highest values.

- CATTTCCC: 0.295
- AGAAACAT: 0.32
- ATGAAAAC: 0.349
- TAAATTGA: 0.288
- TGAAACCA: 0.438
- CTTTATAA: 0.153
- ACAGAAGC: -0.0242
- GAAACAGA: 0.287
- GGTTAGCA: -0.0625
- AATTTTCA: 0.165

Documented PBM E-score of CGGTACTA : -0.0556

The recorded PBM E-score for entry CAAACAGA equals 0.12

====

Parameter: PBM E-score. Scope: all listed entries.
testTarget: Ste12 (UniProt P13574)
assayProcedure: PBM E-score (8-mer binding enrichment) (E-score (-0.5 to 0.5)); higher = stronger / more preferred TF binding
protocolConditions: protein concentration: 200 nM; construct: GST-DNA-binding domain
In all, about 33,000 sequences were measured (“E-score (-0.5 to 0.5)”: median about -0.01, highest 2% from about 0.26 on). For the sample, the highest values were picked, then their nearest neighbours and some sequences at random.
Quick one: just the number, no unit, thanks!

Take a look at these entries with their results.
• AGTTAAAT = 0.163
• CAAAAAAG = 0.159

Lab book: PBM E-score of AAAAAAAA noted as 0.367

Just so you know, measured PBM E-score for ATGTCTCA came out at 0.289

Recorded PBM E-score (sequence ATCACTAC ): -0.117

According to the records, this sequence TCGTCTCA displays PBM E-score of 0.134

// GTGTCTCA : PBM E-score value = 0.338

Value of PBM E-score reported for the sequence TTCATAAA is 0.324

Reported PBM E-score ( GTGATAAA ) = 0.131

Value of PBM E-score reported for the sequence ATAGTTTA is 0.0232

# sequence GTCTCTCA ; its PBM E-score = -0.184

Record summary for ATAAAAAT : reported PBM E-score = 0.241

Value of measured PBM E-score for the entry AACGATCT : 0.153
